TESTED SYSTEM: Neuropilin-1 (Homo sapiens) (UniProt O14786)
Sequence (O14786 whole entry, looked up): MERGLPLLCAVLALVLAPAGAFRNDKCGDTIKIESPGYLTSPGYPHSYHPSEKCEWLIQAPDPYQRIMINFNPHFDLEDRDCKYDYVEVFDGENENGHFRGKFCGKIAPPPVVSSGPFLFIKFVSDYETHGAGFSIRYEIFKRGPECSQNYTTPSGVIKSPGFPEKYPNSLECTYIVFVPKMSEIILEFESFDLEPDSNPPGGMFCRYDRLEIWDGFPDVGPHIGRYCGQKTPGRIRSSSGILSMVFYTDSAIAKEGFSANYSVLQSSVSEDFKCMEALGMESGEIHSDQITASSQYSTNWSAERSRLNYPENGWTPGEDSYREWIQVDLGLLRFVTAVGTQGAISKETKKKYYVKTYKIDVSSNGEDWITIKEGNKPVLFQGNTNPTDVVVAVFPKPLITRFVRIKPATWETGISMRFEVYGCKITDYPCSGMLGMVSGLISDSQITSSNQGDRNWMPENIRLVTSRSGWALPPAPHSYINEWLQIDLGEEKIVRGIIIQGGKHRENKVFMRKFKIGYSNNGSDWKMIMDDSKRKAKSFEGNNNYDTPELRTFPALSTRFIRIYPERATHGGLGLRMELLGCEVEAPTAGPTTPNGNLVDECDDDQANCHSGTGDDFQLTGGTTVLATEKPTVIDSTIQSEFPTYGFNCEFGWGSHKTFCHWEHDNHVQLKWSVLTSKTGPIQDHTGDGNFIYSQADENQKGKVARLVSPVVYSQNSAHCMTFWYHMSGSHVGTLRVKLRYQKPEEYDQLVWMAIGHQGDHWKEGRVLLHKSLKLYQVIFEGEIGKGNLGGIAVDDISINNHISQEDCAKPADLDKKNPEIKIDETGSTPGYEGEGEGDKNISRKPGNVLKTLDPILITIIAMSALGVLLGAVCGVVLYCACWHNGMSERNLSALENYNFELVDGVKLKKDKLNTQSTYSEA
PROCEDURE DETAILS: NRP-1/CendR peptide interaction modulators – biochemical, fluorescence polarization, uHTS, primary screen (AID 602438)
CONDITIONS USED: FAM-RPARPAR peptide binding to NRP-1, fluorescence polarization; at 25 µM
Out of some 360,000 compounds screened, about 3,100 (0.86%) were called active.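 How the source made its calls: active means inhibition or corrected inhibition above about 18%, plus a signal ratio from 0.5 to 1.5 (limit read from the data, passing the limit was not always enough); inactive means the rest.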 What follows is part of a selection rich in actives, with near analogues and random picks from the rest.
Answer with one of the outcomes 1 = active, -1 = inactive

Q) Lab log entry: "COc1ccc(NS(=O)(=O)c2ccc(Oc3c(C#N)cccc3C#N)cc2)cc1" — outcome as called in the assay?
A) -1

Q) Name the outcome recorded for "O=C(c1cccc(F)c1)N1CCN(c2ccc([N+](=O)[O-])c3cccnc23)CC1" in the assay.
A) -1

Q) What was the test verdict on "CCCc1ccc(S(=O)(=O)N2CCN(C(=O)c3cc(C)on3)CC2)cc1" ?
A) -1

Q) What call does the record list for "O=C(c1cccc(F)c1)N1CCN(c2ccc([N+](=O)[O-])c(N3CCCCC3)c2)CC1" ?
A) 1

Q) Recorded test outcome, item "Cc1cc(C(=O)NNC(=O)CCC2CCCCC2)c(C)o1"
A) -1
